Entries and their measured log10 IC50 follow.
Test system: Ramos RA1 B cells
Experiment: Ramos FLIPR Assay (intracellular calcium)
Format: cell-based
Settings: Homo sapiens; Ramos RA1 B cells stimulated with F(ab')2 anti-IgM/IgG, peak intracellular calcium; read-out: Human Ramos Cell FLIPR (IC50 uM)
Experimental: Ramos RA1 B cells (ATCC CRL-1596) at a density of 2×10^6 cells/ml in RPMI minus phenol red (Invitrogen 11835-030) and 50 mM HEPES (Invitrogen 15630-130) containing 0.1% BSA (Sigma A8577) were added to one half volume of calcium loading buffer (BD bulk kit for probenecid sensitive assays, # 640177) and incubated at room temperature in the dark for 1 hour. […]
Response schema: value (number) is log10 of IC50 in units of µM.

INSERT INTO results (compound, measure_name, measurement) VALUES
  ('CC(C)(C)c1ccc(C(=O)N[C@H]2CCCN(c3nc(Nc4ccc(C(=O)N5CCOCC5)cc4)c4nccn4n3)C2)cc1 [Example 2]', 'log10 IC50', 0.61);

Prompt line: For NCc1cnc2c(Nc3ccc(C(=O)N4CCOCC4)cc3)nc(N3CCC[C@@H](NC(=O)c4cc5ccccc5[nH]4)C3)nn12 [Example 35] , what is its reported log10 IC50?
Response line: 0.09

Prompt line: Could you share which log10 IC50 value was measured for CC(C)(C)c1ccc(C(=O)N[C@@H]2CCCN(c3nc(Nc4ccc(C(=O)N5CCNCC5)cc4)c4nccn4n3)C2)cc1 [Example 11] ?
Response line: -1.55

Prompt line: Could you tell me which log10 IC50 is on file for CC(C)(C)c1ccc(C(=O)N[C@@H]2CCCN(c3nc(Nc4ccc(C(=O)N5CCOCC5)cc4)c4ncc(N)n4n3)C2)cc1 [Example 26] ?
Response line: -1.82

Prompt line: Entry under review: CC(C)(C)c1ccc(C(=O)N[C@@H]2CCCN(c3nc(Nc4ccc(C(=O)N5CCOCC5)cc4)c4nccn4n3)C2)cc1 [Example 1] . Reported log10 IC50?
Response line: -0.59
